# Assay text: Single oral dose pharmacokinetics of metapristone in beagle dogs, non-compartmental analysis
# Type: in vivo
# Cond: beagle, dog, plasma, po; female dogs, p.o. 11.25 mg/kg; read-out: MRT (0-t)
Endpoint label: MRT last (h)

• CC#C[C@]1(O)CC[C@H]2[C@@H]3CCC4=CC(=O)CCC4=C3[C@@H](c3ccc(NC)cc3)C[C@@]21C = 8.62

----------
# Assay text: Single-dose pharmacokinetics of metapristone in rats (p.o. and i.v.), non-compartmental analysis
# Assay type: in vivo, Sprague Dawley (SD) rats
# Cond: Sprague-Dawley, rat, plasma, po; male rats, p.o. 22.5 mg/kg; read-out: V d /F
Endpoint label: Vd/F (L/kg)

- CC#C[C@]1(O)CC[C@H]2[C@@H]3CCC4=CC(=O)CCC4=C3[C@@H](c3ccc(NC)cc3)C[C@@]21C: 804

----------
# Assay text: Single-dose pharmacokinetics of metapristone in rats (p.o. and i.v.), non-compartmental analysis
# Assay type: in vivo, Sprague Dawley (SD) rats
# Cond: Sprague-Dawley, rat, plasma, iv; male rats, i.v. 10 mg/kg
Endpoint label: Cmax (ng/mL)

* CC#C[C@]1(O)CC[C@H]2[C@@H]3CCC4=CC(=O)CCC4=C3[C@@H](c3ccc(NC)cc3)C[C@@]21C | 4050

----------
# Assay text: Single oral dose pharmacokinetics of metapristone in beagle dogs, non-compartmental analysis
# Assay type: in vivo
# Cond: beagle, dog, plasma, po; female dogs, p.o. 5.6 mg/kg
Endpoint label: Cmax (ng/mL)

• CC#C[C@]1(O)CC[C@H]2[C@@H]3CCC4=CC(=O)CCC4=C3[C@@H](c3ccc(NC)cc3)C[C@@]21C [metapristone, N-monodemethyl mifepristone] = 70

----------
# Assay text: Single oral dose pharmacokinetics of metapristone in beagle dogs, non-compartmental analysis
# Assay type: in vivo
# Cond: beagle, dog, plasma, po; male dogs, p.o. 11.25 mg/kg
# Description: For pharmacokinetic study, rats were fasted overnight with free access to water using procedures reported previously. Ninety-six SD rats (forty-eight males and forty-eight females) were randomly divided into eight single-dose groups. […] The plasma samples obtained by centrifugation at 4000 g for 10 min and stored at −80 °Cuntil analysis. […] Metapristone was then separated and analyzed by the LC/MS/MS method according to the previously described procedures. […]
Endpoint label: Cmax (ng/mL)

• CC#C[C@]1(O)CC[C@H]2[C@@H]3CCC4=CC(=O)CCC4=C3[C@@H](c3ccc(NC)cc3)C[C@@]21C [metapristone, N-monodemethyl mifepristone] = 150

----------
# Assay text: Single-dose pharmacokinetics of metapristone in rats (p.o. and i.v.), non-compartmental analysis
# Format: in vivo, Sprague Dawley (SD) rats
# Cond: Sprague-Dawley, rat, plasma, po; female rats, p.o. 22.5 mg/kg
Endpoint label: half-life (h)

- CC#C[C@]1(O)CC[C@H]2[C@@H]3CCC4=CC(=O)CCC4=C3[C@@H](c3ccc(NC)cc3)C[C@@]21C: 10.8

----------
# Assay text: Tissue distribution study with metapristone
# Format: in vivo, SD rats
# Cond: Sprague-Dawley, rat, liver; female rats, 45 mg/kg single oral dose, 6 h
Endpoint label: concentration at 6 h (ng/g)

* CC#C[C@]1(O)CC[C@H]2[C@@H]3CCC4=CC(=O)CCC4=C3[C@@H](c3ccc(NC)cc3)C[C@@]21C | 222000
